This collection of values is drawn from patent US6869931B1.

The entries below come with measured pIC50 values attached.
System: human umbilical vein endothelial cells (HUVEC)
Settings: 48 h
No end group written: not given here.
Remember, pIC50 is on a log scale: it is -log10 of the molar concentration.

substance: H-ETKKLGQSLDANAEVY-OH [SEQ ID NO:15]
pIC50: 4.38

Record YFIDFVARETTASKES-OH [SEQ ID NO:20] . Reported pIC50: 4.55

// sample H-LDANAEVYVVPWEKKI-OH [SEQ ID NO:16] , its pIC50 was 4.36
